# Tested on: PmTbr T-box DNA-binding domain (GST fusion);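 also: 200 nM protein in PBS on universal arrays averaged over duplicate arrays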
# Sequence: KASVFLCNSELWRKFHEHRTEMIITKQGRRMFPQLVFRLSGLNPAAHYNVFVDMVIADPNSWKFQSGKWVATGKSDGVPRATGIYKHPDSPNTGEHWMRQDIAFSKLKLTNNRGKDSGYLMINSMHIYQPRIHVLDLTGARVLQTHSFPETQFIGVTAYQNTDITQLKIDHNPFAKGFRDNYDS
# experiment.description: PBM E-score of 8-mer (E-score (dimensionless, -0.5 to 0.5)); Tbr is Tbrain of the sea star Patiria miniata (Pm) or the sea urchin Strongylocentrotus purpuratus (Sp); higher = stronger binding preference
# condition.set: the construct has about 5 more residues each side
Over roughly 33,000 sequences, “E-score (dimensionless, -0.5 to 0.5)” has its median near -0.049; the highest 2% begin near 0.37. The sample as a whole holds a higher share of the highest values than the screen did.
observation.type: PBM E-score of 8-mer

ordered_residues=CACTCTAG data_value=0.223
ordered_residues=GGTTGACA data_value=0.352
ordered_residues=CATTTTGC data_value=-0.00766
ordered_residues=GCCGACAC data_value=0.382
ordered_residues=CGGTCAAA data_value=-0.18
ordered_residues=CCCGACAG data_value=0.11
ordered_residues=AAAGGCAC data_value=-0.0325
ordered_residues=TACACTCA data_value=-0.0251
ordered_residues=AGCACTTC data_value=0.313
ordered_residues=CCCACTCG data_value=0.0373
ordered_residues=ACCACTCC data_value=0.0476
ordered_residues=CCCATCCG data_value=-0.108
ordered_residues=GAGTGAGA data_value=0.334
ordered_residues=ATCACATA data_value=0.297
ordered_residues=CATGTCAA data_value=-0.00945
ordered_residues=AACACGTC data_value=0.399
ordered_residues=AGTTGACG data_value=0.153
ordered_residues=CTGACTCC data_value=-0.143
ordered_residues=CATTGGGG data_value=-0.0156
ordered_residues=ATAACCAA data_value=-0.112
ordered_residues=CGGGCAAG data_value=-0.0794
ordered_residues=AACACTTC data_value=0.442
ordered_residues=ACCCACGG data_value=-0.132
ordered_residues=AGGACACG data_value=-0.0089
ordered_residues=TCAATGCA data_value=-0.268
ordered_residues=GAACACCA data_value=0.0994
ordered_residues=AGTGTTAA data_value=0.433
ordered_residues=AGTGTTCC data_value=0.0364
ordered_residues=AACACTAG data_value=0.275
ordered_residues=GCCGCTGA data_value=-0.113
ordered_residues=TAACACTA data_value=0.382
ordered_residues=ACTTCTCC data_value=-0.0311
ordered_residues=GAGTTACA data_value=0.0401
ordered_residues=CGAGATCC data_value=0.0268
ordered_residues=ATACTTCC data_value=0.0697
ordered_residues=ATCACTTA data_value=0.194
ordered_residues=AGGCGTAG data_value=0.0703
ordered_residues=CTTCTCGC data_value=0.229
ordered_residues=AACACTGA data_value=0.182
ordered_residues=CGTTGACA data_value=0.405
ordered_residues=CCCACTCC data_value=-0.0608
ordered_residues=AACACACC data_value=0.3
ordered_residues=GACACGTC data_value=0.373
ordered_residues=GATAACCC data_value=0.0272
ordered_residues=GCTGTCAA data_value=0.323
ordered_residues=CAACACGA data_value=0.161
ordered_residues=AACACTTG data_value=0.408
ordered_residues=ATCACTTG data_value=0.216
ordered_residues=GGGCGTTA data_value=0.276
ordered_residues=GTAGTCGA data_value=-0.0608
ordered_residues=GACACTCC data_value=0.336
ordered_residues=TACGCACA data_value=-0.0799
ordered_residues=CAACACCC data_value=0.444
ordered_residues=GAATCATA data_value=0.0757
ordered_residues=CACACTGA data_value=0.258
ordered_residues=CACACTCA data_value=0.381
ordered_residues=GTGATAAA data_value=0.339
ordered_residues=GCTGTTAC data_value=0.0246
ordered_residues=ATCACAGC data_value=0.211
ordered_residues=GACTACCA data_value=-0.0358
ordered_residues=ATCACAGG data_value=0.195
ordered_residues=CACACTTA data_value=0.445
ordered_residues=CGTGTTAC data_value=0.349
ordered_residues=GCCGACAA data_value=0.116
ordered_residues=GGTGTAAC data_value=0.363
ordered_residues=GGGTGAGA data_value=0.406
ordered_residues=CGGCGTTA data_value=0.189
ordered_residues=CATCTGCC data_value=-0.176
ordered_residues=AACACGTT data_value=0.386
ordered_residues=CGAAGATC data_value=-0.07
ordered_residues=AACACTCG data_value=0.237
ordered_residues=AGGCGTTG data_value=0.369
ordered_residues=AATTCGCA data_value=0.339
ordered_residues=AACACGTA data_value=0.34
ordered_residues=CTCAAGAA data_value=-0.0351
ordered_residues=CGAGACTC data_value=0.0667
ordered_residues=ACTGTCAG data_value=0.129
ordered_residues=AGAAGGGA data_value=-0.301
ordered_residues=CCCCAGAC data_value=-0.109
ordered_residues=CACACTCG data_value=0.408

Origin of measurements: the supplement of paper PMC4166925
